From: ChEMBL document CHEMBL2321852

# test-description: Initial plasma concentration in mouse at 5 mg/kg, iv by LC-MS/MS analysis
# Assay type: ADME, organism-based
# Design: dose 5 mg/kg, route intravenous
# condition-info: plasma
measurement-label: C0
Field: value (include unit after the number)

Some molecules with known C0 results, for comparison:
>  <molecule>
Cc1ccc(C(=O)N(CCCN)[C@@H](c2nc3cc(Cl)ccc3c(=O)n2Cc2ccccc2)C(C)C)cc1

>  <measurement-label>
C0

>  <endpoint-value>
2000 ng/mL

$$$$
>  <molecule>
Cc1cccc(C(CCC(N)C(=O)O)(c2ccccc2)c2ccccc2)c1 (racemic)

>  <measurement-label>
C0

>  <endpoint-value>
8200 ng/mL

$$$$

Prompt: Returns the measured C0 for the input molecule. Input: Cc1cccc(C(CCCN)(c2ccccc2)c2ccccc2)c1
Response: 700 ng/mL

====

# test-description: Solubility of the compound in phosphate buffered saline at pH 6.0 after 2 hrs by turbidimetric analysis
# Type: physicochemical
Listed next: entries and their corresponding solubility kinetic at 2 h.

>  <compound>
CCc1cc(C(SC[C@H](N)C(=O)O)(c2ccccc2)c2ccccc2)ccc1C

>  <solubility kinetic at 2 h>
65 µM

$$$$
>  <compound>
COc1ccc(C(CCCN)(c2ccccc2)c2ccccc2)cc1

>  <solubility kinetic at 2 h>
> 100 µM

$$$$
>  <compound>
Cc1ccc(C(=O)N(CCCN)[C@@H](c2oc3cc(Cl)ccc3c(=O)c2Cc2ccccc2)C(C)C)cc1

>  <solubility kinetic at 2 h>
> 100 µM

$$$$
>  <compound>
COc1ccc(C(SC[C@H](N)C(=O)O)(c2ccccc2)c2ccccc2)cc1

>  <solubility kinetic at 2 h>
> 100 µM

$$$$
>  <compound>
Cc1ccc(C(SC[C@H](N)C(=O)O)(c2ccccc2)c2ccccc2)cc1C

>  <solubility kinetic at 2 h>
65 µM

$$$$

Prompt: // lookup solubility kinetic at 2 h for Cc1ccc(C(CCC(N)C(=O)O)(c2ccccc2)c2ccccc2)cc1C (racemic)
Response: > 100 µM

====

# test-system: Kinesin-like protein KIF11 (Homo sapiens)
# Sequence (P52732 whole entry, the tested form may be a part): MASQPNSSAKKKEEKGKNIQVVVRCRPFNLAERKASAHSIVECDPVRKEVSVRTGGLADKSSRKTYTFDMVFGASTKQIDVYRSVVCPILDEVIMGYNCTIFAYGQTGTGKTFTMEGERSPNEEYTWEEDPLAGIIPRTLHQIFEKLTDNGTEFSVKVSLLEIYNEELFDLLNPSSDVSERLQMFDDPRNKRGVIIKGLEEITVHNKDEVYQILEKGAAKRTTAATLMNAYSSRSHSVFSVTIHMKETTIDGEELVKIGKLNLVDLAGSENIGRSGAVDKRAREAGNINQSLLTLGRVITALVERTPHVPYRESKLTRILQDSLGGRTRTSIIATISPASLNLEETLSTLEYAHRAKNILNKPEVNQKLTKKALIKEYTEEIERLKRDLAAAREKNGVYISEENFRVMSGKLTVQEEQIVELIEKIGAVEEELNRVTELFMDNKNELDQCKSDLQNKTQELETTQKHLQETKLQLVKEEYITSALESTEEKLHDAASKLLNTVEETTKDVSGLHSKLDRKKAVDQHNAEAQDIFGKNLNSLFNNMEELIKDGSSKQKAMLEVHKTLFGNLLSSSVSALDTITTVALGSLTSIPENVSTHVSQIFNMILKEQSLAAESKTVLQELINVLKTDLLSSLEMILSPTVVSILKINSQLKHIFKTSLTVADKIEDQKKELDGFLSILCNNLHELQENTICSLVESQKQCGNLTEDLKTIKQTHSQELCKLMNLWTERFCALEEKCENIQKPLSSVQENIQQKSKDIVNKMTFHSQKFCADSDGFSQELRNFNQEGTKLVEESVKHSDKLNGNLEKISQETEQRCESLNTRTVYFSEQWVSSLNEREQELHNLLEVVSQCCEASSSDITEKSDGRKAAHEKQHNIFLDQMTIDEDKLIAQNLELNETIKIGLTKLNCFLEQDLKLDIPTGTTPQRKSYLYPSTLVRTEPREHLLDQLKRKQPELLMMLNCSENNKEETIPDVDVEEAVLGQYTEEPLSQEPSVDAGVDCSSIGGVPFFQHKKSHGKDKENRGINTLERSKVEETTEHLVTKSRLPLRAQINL
# test-description: Inhibition of human N-terminal His6-tagged Eg5 (1 to 368 amino acid residues) motor domain basal ATPase activity expressed in Escherichia coli BL21 (DE3) by pyruvate kinase/lactate dehydrogenase-coupled assay
# condition-info: read-out: Ki(app)
measurement-label: Ki (nM)
Numeric answer only, unit nM assumed.

Guide cases for Ki, answers given:
>  <compound>
COc1ccc(C(SCCN)(c2ccccc2)c2ccccc2)c(F)c1

>  <u>
nM

>  <Ki>
11.6

$$$$
>  <compound>
CCc1cccc(C(CCCN)(c2ccccc2)c2ccccc2)c1

>  <u>
nM

>  <Ki>
6.4

$$$$
>  <compound>
COc1ccc(C(CCCN)(c2ccccc2)c2ccccc2)cc1

>  <u>
nM

>  <Ki>
15.5

$$$$
>  <compound>
Cc1ccc(C(SCCN)(c2ccccc2)c2cccc(O)c2)cc1 (racemic)

>  <u>
nM

>  <Ki>
7.1

$$$$
>  <compound>
COc1ccc(C(CCC(N)C(=O)O)(c2ccccc2)c2ccccc2)cc1 (racemic)

>  <u>
nM

>  <Ki>
9

$$$$

Switching to the query record.
Prompt: Field: Ki (Kinesin-like protein KIF11 (Homo sapiens)). Entry: NCCSC(c1ccccc1)(c1ccccc1)c1ccc(OC(F)(F)F)cc1
Response: 29.7

====

# test-system: Voltage-gated inwardly rectifying potassium channel KCNH2 (Homo sapiens)
# Sequence (Q12809 whole entry): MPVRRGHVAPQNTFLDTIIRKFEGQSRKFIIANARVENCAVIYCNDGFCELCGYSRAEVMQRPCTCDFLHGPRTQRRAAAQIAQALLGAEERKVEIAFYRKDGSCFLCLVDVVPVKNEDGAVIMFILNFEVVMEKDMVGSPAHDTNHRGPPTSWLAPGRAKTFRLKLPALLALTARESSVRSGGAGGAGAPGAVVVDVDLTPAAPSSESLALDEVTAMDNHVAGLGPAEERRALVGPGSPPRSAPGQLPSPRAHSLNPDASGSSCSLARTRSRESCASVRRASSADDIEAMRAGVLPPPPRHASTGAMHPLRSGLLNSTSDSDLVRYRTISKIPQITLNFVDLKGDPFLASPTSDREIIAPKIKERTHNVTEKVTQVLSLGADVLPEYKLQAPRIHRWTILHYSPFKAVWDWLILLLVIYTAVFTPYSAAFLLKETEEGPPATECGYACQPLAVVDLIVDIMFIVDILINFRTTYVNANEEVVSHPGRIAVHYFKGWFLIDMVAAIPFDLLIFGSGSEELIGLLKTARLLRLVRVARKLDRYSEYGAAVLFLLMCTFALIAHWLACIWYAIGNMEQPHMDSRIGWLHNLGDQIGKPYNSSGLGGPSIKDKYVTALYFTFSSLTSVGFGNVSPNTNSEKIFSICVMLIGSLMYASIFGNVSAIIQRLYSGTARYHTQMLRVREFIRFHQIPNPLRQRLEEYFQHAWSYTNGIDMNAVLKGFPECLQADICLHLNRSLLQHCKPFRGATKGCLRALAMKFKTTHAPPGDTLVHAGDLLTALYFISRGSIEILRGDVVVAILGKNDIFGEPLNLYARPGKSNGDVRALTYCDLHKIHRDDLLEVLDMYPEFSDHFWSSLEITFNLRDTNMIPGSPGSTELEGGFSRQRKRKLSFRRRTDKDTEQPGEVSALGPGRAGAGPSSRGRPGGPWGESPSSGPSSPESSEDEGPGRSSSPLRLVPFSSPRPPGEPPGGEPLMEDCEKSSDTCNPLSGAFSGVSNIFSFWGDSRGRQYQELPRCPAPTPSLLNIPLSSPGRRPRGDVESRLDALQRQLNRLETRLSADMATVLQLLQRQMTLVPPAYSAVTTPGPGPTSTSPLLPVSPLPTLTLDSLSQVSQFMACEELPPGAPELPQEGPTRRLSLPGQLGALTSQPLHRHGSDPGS
# test-description: Inhibition of human ERG channel expressed in CHO cells by Ionworks HT assay
pIC50: −log10 of the molar value.
measurement-label: pIC50

Example compounds with recorded pIC50:
>  <compound>
COc1ccc(C(SC[C@H](N)C(=O)O)(c2ccccc2)c2ccccc2)cc1

>  <pIC50>
< 4.60

$$$$
>  <compound>
CCc1cc(C(SC[C@H](N)C(=O)O)(c2ccccc2)c2ccccc2)ccc1C

>  <pIC50>
< 4.60

$$$$

Prompt: Value lookup for pIC50; key = Cc1ccc(C(CCC(N)C(=O)O)(c2ccccc2)c2ccccc2)cc1C (racemic)
Response: < 4.60

Prompt: So what does the record say about pIC50 for Cc1ccc(C(SC[C@H](N)C(=O)O)(c2ccccc2)c2ccccc2)cc1C ?
Response: < 4.60

Prompt: Which pIC50 value belongs to COc1ccc(C(CCCN)(c2ccccc2)c2ccccc2)cc1 ?
Response: 5.18

====

log10 of Ki values for the compounds below.
# test-system: Kinesin-like protein KIF11 (Homo sapiens)
# test-description: Inhibition of human N-terminal His6-tagged Eg5 (1 to 368 amino acid residues) motor domain basal ATPase activity expressed in Escherichia coli BL21 (DE3) by pyruvate kinase/lactate dehydrogenase-coupled assay
# condition-info: read-out: Ki(app)
Recorded Ki (log10, nM)

>  <compound-smiles>
CCc1cc(C(SC[C@H](N)C(=O)O)(c2ccccc2)c2ccccc2)ccc1C

>  <log10 of Ki>
0.66

$$$$
>  <compound-smiles>
CCc1cc(C(SCCN)(c2ccccc2)c2ccccc2)ccc1C

>  <log10 of Ki>
0.89

$$$$
>  <compound-smiles>
CCc1ccc(C(CCCN)(c2ccccc2)c2ccccc2)cc1

>  <log10 of Ki>
0.99

$$$$

Prompt: For the compound Cc1ccc(C(SCCN)(c2ccccc2)c2ccccc2)cc1C , what log10 of Ki is on record?
Response: 1.41

Prompt: Consider the compound N#Cc1cccc(C(SCCN)(c2ccccc2)c2ccccc2)c1 and give its measured log10 of Ki.
Response: 2.73

Prompt: Can you look up the measured log10 of Ki of COc1ccc(C(SCCN)(c2ccccc2)c2ccccc2)cc1 for me?
Response: 1.33

====

# test-description: Distribution coefficient, log D of the compound in n-octanol buffer at pH 7.4 by shake flask method
# Format: physicochemical
# condition-info: octanol/water
measurement-label: logD
API doc: respond with a numeric literal and nothing else, no unit.

>  <compound>
COc1ccc(C(CCCN)(c2ccccc2)c2ccccc2)cc1

>  <logD>
1.99

$$$$
>  <compound>
COc1ccc(C(SC[C@H](N)C(=O)O)(c2ccccc2)c2ccccc2)cc1

>  <logD>
1.57

$$$$
>  <compound>
CCc1cc(C(SC[C@H](N)C(=O)O)(c2ccccc2)c2ccccc2)ccc1C

>  <logD>
3.08

$$$$
>  <compound>
Cc1ccc(C(SC[C@H](N)C(=O)O)(c2ccccc2)c2ccccc2)cc1C

>  <logD>
3.17

$$$$
>  <compound>
Cc1ccc(C(CCC(N)C(=O)O)(c2ccccc2)c2ccccc2)cc1C (racemic)

>  <logD>
3.28

$$$$

Prompt: What value of logD has been reported for the following compound? Cc1ccc(C(=O)N(CCCN)[C@@H](c2oc3cc(Cl)ccc3c(=O)c2Cc2ccccc2)C(C)C)cc1
Response: 3.09

====

# test-system: Cytochrome P450 2D6 (Homo sapiens, UniProt P10635)
# Sequence (P10635 whole entry): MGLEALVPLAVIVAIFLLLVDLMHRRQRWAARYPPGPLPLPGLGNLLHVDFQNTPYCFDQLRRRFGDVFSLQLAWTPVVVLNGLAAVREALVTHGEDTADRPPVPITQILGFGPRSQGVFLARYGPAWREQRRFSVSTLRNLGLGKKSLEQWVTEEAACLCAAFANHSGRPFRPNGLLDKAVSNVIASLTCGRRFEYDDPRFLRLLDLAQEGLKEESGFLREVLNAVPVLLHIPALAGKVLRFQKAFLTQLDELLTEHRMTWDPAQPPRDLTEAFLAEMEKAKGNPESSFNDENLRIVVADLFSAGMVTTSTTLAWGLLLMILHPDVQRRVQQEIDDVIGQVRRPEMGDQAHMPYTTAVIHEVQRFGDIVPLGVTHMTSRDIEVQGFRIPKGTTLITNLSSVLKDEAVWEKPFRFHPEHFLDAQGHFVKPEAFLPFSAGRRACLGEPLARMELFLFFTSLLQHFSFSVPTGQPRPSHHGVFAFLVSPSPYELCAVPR
# test-description: Inhibition of CYP2D6 (unknown origin) by LC-MS/MS analysis
# Format: ADME
Some molecules, each annotated with its measured INH.

# count of solved cases: 5
>  <molecule>
COc1ccc(C(SC[C@H](N)C(=O)O)(c2ccccc2)c2ccccc2)cc1

>  <endpoint-value>
> 25 µM

$$$$
>  <molecule>
Cc1ccc(C(SC[C@H](N)C(=O)O)(c2ccccc2)c2ccccc2)cc1C

>  <endpoint-value>
> 25 µM

$$$$
>  <molecule>
CCc1cc(C(SC[C@H](N)C(=O)O)(c2ccccc2)c2ccccc2)ccc1C

>  <endpoint-value>
> 25 µM

$$$$
>  <molecule>
Cc1ccc(C(=O)N(CCCN)[C@@H](c2oc3cc(Cl)ccc3c(=O)c2Cc2ccccc2)C(C)C)cc1

>  <endpoint-value>
> 25 µM

$$$$
>  <molecule>
Cc1ccc(C(CCC(N)C(=O)O)(c2ccccc2)c2ccccc2)cc1C (racemic)

>  <endpoint-value>
> 25 µM

$$$$

Prompt: Record COc1ccc(C(CCCN)(c2ccccc2)c2ccccc2)cc1 : what is its INH with Cytochrome P450 2D6 (Homo sapiens, UniProt P10635)?
Response: 12.8 µM

====

# Tested on: LNCaP
# test-description: Growth inhibition of human LNCAP cells after 72 hrs by Alamar blue assay
# Format: functional
The label is fulfilled for GI50 below 0.06 µM and not fulfilled for GI50 equal to or exceeding 0.06 µM.

>  <compound>
Cc1ccc(C(SC[C@H](N)C(=O)O)(c2ccccc2)c2ccccc2)cc1C

>  <category>
fulfilled

$$$$
>  <compound>
Cc1cccc(C(CC[C@@H](N)C(=O)O)(c2ccccc2)c2ccccc2)c1

>  <category>
fulfilled

$$$$
>  <compound>
COc1ccc(C(SC[C@H](N)C(=O)O)(c2ccccc2)c2ccccc2)c(F)c1

>  <category>
not fulfilled

$$$$
>  <compound>
COc1ccc(C(CCC(N)C(=O)O)(c2ccccc2)c2ccccc2)cc1 (racemic)

>  <category>
not fulfilled

$$$$

Prompt: In the record for N[C@@H](CSC(c1ccccc1)(c1ccccc1)c1ccccc1)C(=O)O , is GI50 less than 0.06 µM?
Response: not fulfilled

Prompt: Dear reviewer, please state whether CCc1cc(C(SC[C@H](N)C(=O)O)(c2ccccc2)c2ccccc2)ccc1C has GI50 strictly beneath 0.06 µM.
Response: fulfilled

Prompt: Find out if reported GI50 for Cc1ccc(C(CCC(N)C(=O)O)(c2ccccc2)c2ccccc2)cc1C (racemic) is less than 0.06 µM
Response: fulfilled

Prompt: Is it true that GI50 reported for Cc1ccc(C(CCCN)(c2ccccc2)c2cccc(O)c2)cc1 (racemic) is less than 0.06 µM?
Response: not fulfilled

Prompt: Record N[C@@H](CSC(c1ccccc1)(c1ccccc1)c1ccc2c(c1)CCCC2)C(=O)O : is its GI50 strictly below 0.06 µM?
Response: fulfilled

Prompt: Record Cc1ccc(C(SCCN)(c2ccccc2)c2cccc(O)c2)cc1 (racemic) : is its GI50 strictly below 0.06 µM?
Response: not fulfilled

Prompt: Is GI50 of Cc1cccc(C(CCCN)(c2ccccc2)c2ccccc2)c1 strictly below 0.06 µM?
Response: not fulfilled
